- Experiment Summary: Cytotoxicity in LPS-stimulated mouse RAW264.7 cells assessed as reduction in cell viability incubated for […] by alamar blue dye based colorimetric assay
- Assay type: toxicity
- Recorded Conditions: LPS-stimulated RAW264.7 cells
Parameter: CC50 at 24 h. Scope: all listed entries.

| Compound | Readout Unit | CC50 at 24 h |
| --- | --- | --- |
| COc1cc(C[C@@H](CO)[C@H](COC(=O)CC(=O)O)Cc2ccc(O)c(OC)c2)ccc1O | µM | 9.1 |
| C/C=C/C(=O)OC[C@H](Cc1ccc(O)c(OC)c1)[C@H](CO)Cc1ccc(O)c(OC)c1 | µM | 7.3 |
| C[C@@H]1C[C@H]2[C@@H]3CCC4=CC(=O)C=C[C@]4(C)[C@@]3(F)[C@@H](O)C[C@]2(C)[C@@]1(O)C(=O)CO [DEXAMETHASONE] | µM | 4.4 |
| COc1cc(C[C@H]2COC(=O)[C@@H](C(=O)O)[C@@H](C)[C@@H](C(=O)O)C(=O)OC[C@@H]2Cc2ccc(O)c(OC)c2)ccc1O | µM | 23.4 |
